For steroid 5α-reductase enzyme (Homo sapiens), measured pIC50 is reported for the entries below.
A value of pIC50 is the negative decimal logarithm of a concentration given in moles per litre.

CC(C)N(C(=O)[C@H]1CC[C@H]2[C@@H]3CCC4=C(N)C(=O)CC[C@]4(C)[C@H]3CC[C@]12C)C(C)C; 6.98
CC(C)(C)NC(=O)[C@H]1CC[C@H]2[C@@H]3CCC4=C(N)C(=O)CC[C@]4(C)[C@H]3CC[C@]12C; 7.23
CC(=O)[C@H]1CC[C@H]2[C@@H]3CCC4=C(N)C(=O)CC[C@]4(C)[C@H]3CC[C@]12C; 7.30

As a next step, examine the compound that follows.
Record lookup: for steroid 5α-reductase enzyme (Homo sapiens), what pIC50 belongs to C[C@H](CO)[C@H]1CC[C@H]2[C@@H]3CCC4=C(N)C(=O)CC[C@]4(C)[C@H]3CC[C@]12C ? 7.27
